Item-by-item account of pIC50
- target: human PD-1 / PD-L1-Ig binding on Jurkat cell line over-expressing human PD-1 (Jurkat-PD-1) (Homo sapiens, UniProt Q15116)
- Construct: expressed in transfected cells; host or cells: Jurkat
- Sequence (Q15116 25-288): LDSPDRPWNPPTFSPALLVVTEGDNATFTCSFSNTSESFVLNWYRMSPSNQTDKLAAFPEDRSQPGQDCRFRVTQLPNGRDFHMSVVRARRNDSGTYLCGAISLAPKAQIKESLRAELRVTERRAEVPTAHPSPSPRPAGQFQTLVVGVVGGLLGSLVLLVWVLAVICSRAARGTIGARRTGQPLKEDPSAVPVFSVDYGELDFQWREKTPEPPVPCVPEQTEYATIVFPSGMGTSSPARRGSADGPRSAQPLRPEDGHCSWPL
- measurement-protocol: Jurkat-PD-1 Cell Binding High-Content Screening Assay (CBA)
- Type: cell-based
- condition-parameters: Jurkat-PD-1 cells, PE-labeled PD-L1-Ig 20 nM final; read-out: Jurkat HPD1_PDL1 IC50
Where a SMILES comes first, the peptide text is derived from it. Bridges are numbered along the chain shown (N, C = ends). [ ]: non-standard residue; d: D form. Bip = N[C@@H](Cc1ccc(-c2ccccc2)cc1)C(=O)O; 4Pal = N[C@@H](Cc1ccncc1)C(=O)O; Dab = NCC[C@H](N)C(=O)O; Dap = NC[C@H](N)C(=O)O
In plain terms, pIC50 is the concentration in mol/L turned into minus its base-10 logarithm.

CC(C)C[C@@H]1NC(=O)[C@H](CCN)NC(=O)[C@@H](CC(C)C)NC(=O)[C@H](CCN)NC(=O)[C@H](CCC(=O)O)NC(=O)[C@H](Cc2ccc(-c3ccccc3)cc2)NC(=O)[C@H](C(C)C)NC(=O)[C@H](Cc2c[nH]c3ccccc23)NC(=O)[C@H](CC(=O)O)NC(=O)[C@H](Cc2ccncc2)NC(=O)[C@H](CN)NC(=O)CSC[C@@H](C(=O)N[C@@H](C)C(N)=O)NC(=O)[C@H](CO)NC(=O)[C@H](C(C)C)NC1=O [Compound 1267] ({CH2CO}-[Dap][4Pal]DWV[Bip]E[Dab][dL][Dab]LVSCA-NH2; thioether N-14) | 7.00

**Query** What value of pIC50 has been reported for the following molecule? CCC(C)[C@@H]1NC(=O)[C@H](Cc2ccc(-c3ccccc3)cc2)NC(=O)[C@H](C(C)C)NC(=O)[C@H](Cc2cccc(C)c2)NC(=O)[C@H](CC(=O)O)NC(=O)[C@H](Cc2ccc(C(=O)O)cc2)NC(=O)[C@H](Cc2ccncc2)NC(=O)CSC[C@@H](C(=O)N[C@@H](CC(N)=O)C(N)=O)NC(=O)[C@H]([C@@H](C)O)NC(=O)[C@H](C(C)C)NC(=O)[C@H](CC2CCCCC2)NC(=O)[C@H](CCN)NC(=O)[C@@H](CC(C)C)NC(=O)[C@H](CCCN)NC1=O (some centres unmarked) [Compound 2297]
**Result** 7.98

====

Item-by-item account of pIC50
- target: human PD-1 / PD-L1-Ig binding on Jurkat cell line over-expressing human PD-1 (Jurkat-PD-1) (Homo sapiens)
- Construct: expressed in transfected cells; host or cells: Jurkat
- measurement-protocol: Jurkat-PD-1 Cell Binding High-Content Screening Assay (CBA)
- Format: cell-based
- condition-parameters: Jurkat-PD-1 cells, PE-labeled PD-L1-Ig 20 nM final; read-out: Jurkat HPD1_PDL1 IC50
- Method: Example 3. Jurkat-PD-1 Cell Binding High-Content Screening Assay (CBA) Jurkat-PD-1 Cell Binding High-Content Screening Assay (CBA). Phycoerythrin (PE) was covalently linked to the Ig epitope tag of human PD-L1-Ig and fluorescently-labeled PD-L1-Ig was used for binding studies with a Jurkat cell line over-expressing human PD-1 (Jurkat-PD-1). Briefly, 8×10^3 Jurkat-hPD-1 cells were seeded into 384 well plates in 20 μl of DMEM supplemented with 10% fetal calf serum. […]
Where a SMILES comes first, the peptide text is derived from it. Bridges are numbered along the chain shown (N, C = ends). [ ]: non-standard residue; d: D form. Bip = N[C@@H](Cc1ccc(-c2ccccc2)cc1)C(=O)O; Orn = NCCC[C@H](N)C(=O)O; Dab = NCC[C@H](N)C(=O)O
In plain terms, pIC50 is the concentration in mol/L turned into minus its base-10 logarithm.

CC(C)C[C@@H]1NC(=O)[C@H](CCN)NC(=O)[C@@H](CC(C)C)NC(=O)[C@H](CCCCN)NC(=O)[C@H](C(C)C)NC(=O)[C@H](Cc2ccc(-c3ccccc3)cc2)NC(=O)[C@H](C(C)C)NC(=O)[C@H](Cc2c[nH]c3ccccc23)NC(=O)[C@H](CC(N)=O)NC(=O)[C@H](Cc2ccc(O)cc2)NC(=O)[C@H](CC(N)=O)NC(=O)CSC[C@@H](C(=O)NCC(N)=O)NC(=O)[C@H]([C@@H](C)O)NC(=O)[C@H](C(C)C)NC1=O [Compound 1085] ({CH2CO}-NYNWV[Bip]VK[dL][Dab]LVTCG-NH2; thioether N-14) | 7.65

Let us examine a further case.
**Query** What value of pIC50 has been reported for the following molecule? CC(C)C[C@@H]1NC(=O)[C@H](Cc2c[nH]c3ccccc23)NC(=O)[C@H](CC(=O)O)NC(=O)[C@H](Cc2ccc(O)cc2)NC(=O)[C@H](Cc2ccccc2)NC(=O)CSC[C@@H](C(=O)NCC(N)=O)NC(=O)[C@H]([C@@H](C)O)NC(=O)[C@H](C(C)C)NC(=O)[C@H](CC(C)C)NC(=O)[C@H](CCN)NC(=O)[C@@H](CC(C)C)NC(=O)[C@H](CCCN)NC(=O)[C@H](C(C)C)NC(=O)[C@H](Cc2ccc(-c3ccccc3)cc2)NC1=O [Compound 1068] ({CH2CO}-FYDWL[Bip]V[Orn][dL][Dab]LVTCG-NH2; thioether N-14)
**Result** 7.76
